tested on: normal human lung fibroblasts; assay: Ribosomal profiling: translational efficiency in TGFβ-treated fibroblasts; format: cell-based; conditions: ENSG00000197111; TGFβ-treated fibroblasts
property-name: renormalizing the translational profile of PCBP2

molecule=Cc1cc(C2CCCCC2)n(O)c(=O)c1.NCCO assayed_target="normal human lung fibroblasts" observed_result="− (− = <0.9)"
molecule="CC(C=CC(=O)NO)=CC(C)C(=O)c1ccc(N(C)C)cc1 (centres unmarked)" assayed_target="normal human lung fibroblasts" observed_result="+ (+ = 0.9 to 1.5)"
molecule=COC(=O)[C@H]1[C@@H](O)[C@@]2(O)c3c(OC)cc(O[C@@H]4O[C@@H]([C@H](O)CO)CO[C@H]4OC)cc3O[C@@]2(c2ccc(OC)cc2)[C@@H]1c1ccccc1 assayed_target="normal human lung fibroblasts" observed_result="+ (+ = 0.9 to 1.5)"
molecule=Cc1ccc(=O)n(-c2ccccc2)c1 assayed_target="normal human lung fibroblasts" observed_result="− (− = <0.9)"

Below: the item to evaluate.
Enquiry: What does the record list as renormalizing the translational profile of PCBP2 for "CC(C)n1nc(-c2cc3cc(O)ccc3[nH]2)c2c(N)ncnc21" ?
Return: − (− = <0.9)
